Every entry's value here was drawn from ChEMBL document CHEMBL5104182.

Tested on: HT-29
Experiment: Antiproliferative activity against human HT-29 cells assessed as cell viability incubated for 48 hrs by MTT assay
Assay type: functional
Readout Type: GI50 (µM)

Below, 3 compounds whose answers are already recorded.
{"columns": ["Mol Smiles", "Test Target", "GI50 [µM]"],
 "data": [
  ["Cc1cccc(NC(=O)Nc2cccc(Oc3ccc(N)nc3)c2)c1", "HT-29", 41.5],
  ["Nc1ccc(Oc2ccc(NC(=O)Nc3ccc(F)c(C(F)(F)F)c3)cc2)cn1", "HT-29", 8.5],
  ["Nc1ccc(Oc2cccc(NC(=O)Nc3ccc(Cl)c(Cl)c3)c2)cn1", "HT-29", 30.3]
]}

a = Nc1ccc(Oc2ccc(NC(=O)Nc3cccc(Cl)c3Cl)cc2)cn1
b = O=C(Nc1ccc(Oc2cnc3[nH]ccc3c2)cc1)Nc1cccc(C(F)(F)F)c1
## Input Please compare: a and b . Report which one has the smaller GI50 value. Please identify the chosen entry by its label.
## Output b
